- target.system: ScLsb4
- measurement.protocol: SPOT peptide array binding signal intensity (averaged, normalized) (arbitrary units (background-subtracted, floor 0; scale differs between SH3 domains)); higher = stronger binding of the SH3 domain to the peptide
observed.property: SPOT peptide array binding signal intensity
Returns: the value as a bare number; no unit string appended.

Record `SGVRLPAPPPPPRRG` . Reported SPOT peptide array binding signal intensity: 2100

SPOT peptide array binding signal intensity in this record for `RRLRDKYKLPIVDAD` : 8

Briefly, SPOT peptide array binding signal intensity measured for `DKSRPPRPPPKPLHL` : 11

// recorded SPOT peptide array binding signal intensity for `VQPTAAPATPPRHIS` : 1970
